Listed below are compounds with pKi for Adenosine receptor A1 (Rattus norvegicus, UniProt P25099), each taken from published literature.
Numbers only, as −log10 of the molar value.

> print(dat)
                                   compound  parameter  numeric.result
1  CCCn1c(=O)c2nc(-c3ccc(N(C)C)cc3)[nH]c2n(CCC)c1=O        pKi            7.35
2          Cn1ncc2c1nc(N)n1nc(-c3ccco3)nc21        pKi            6.19
3  COc1cccc2cc(-c3nc4c(=O)n(C)c(=O)n(C)c4[nH]3)oc12        pKi            5.75

Working through the 2 compounds below one at a time, give pKi for each.
1. CCNC(=O)[C@H]1OC(n2cnc3c(NCCCNS(=O)(=O)c4cccc5c(N(C)C)cccc45)ncnc32)[C@H](O)[C@@H]1O (stereo not given in full)
2. CC[C@@H]1CN2C(=O)N(C)c3ncn(C)c3C2=N1

a:
[7.38, 4.12]

Working through the 3 compounds below one at a time, give pKi for each.
1. O[C@@H]1[C@H](O)[C@@H](CCl)O[C@H]1n1cnc2c(NCc3cccc(I)c3)ncnc21
2. C[C@H](Cc1ccccc1)Nc1ncnc2c1ncn2C1CCCC(O)C1O (stereo not given in full)
3. COC(=O)CCCCCCC(=O)Nc1nc2ccc(Cl)cc2c2nc(-c3ccco3)nn12

a:
1: 6.57; 2: 4.82; 3: 7.33

Working through the 6 compounds below one at a time, give pKi for each.
1. C=CCn1c(=O)c2c(nc(-c3ccccc3)n2CC=C)n(C)c1=O
2. Nc1nc(OCCc2ccccc2Cl)nc2c1ncn2C1O[C@H](CO)[C@@H](O)[C@H]1O (stereo not given in full)
3. OC[C@H]1O[C@@H](n2cnc3c(NN4CCCCCC4)nc(Cl)nc32)[C@H](O)[C@@H]1O
4. Nc1ccc(CC(=O)Nc2nc3ccc(Cl)cc3c3nc(-c4ccco4)nn23)cc1I
5. CCCCn1cc2c(nc(N)n3nc(-c4ccco4)nc23)n1
6. OC[C@H]1OC(n2cnc3c(NCC(c4ccccc4)(c4ccccc4)c4ccccc4)ncnc32)[C@H](O)[C@@H]1O (stereo not given in full)

a:
6.18
6.28
8.03
6.66
7.52
4.84

Working through the 4 compounds below one at a time, give pKi for each.
1. CCCCn1c(=O)c2c(nc3n2CCCN3CCc2ccc(OCCN3CCOCC3)cc2)n(CCCC)c1=O
2. NC1=Nc2c(ncn2C2O[C@@H](CO)[C@H](O)[C@@H]2O)C2=N[C@@H](c3ccccc3)CN12 (stereo not given in full)
3. CCNC(=O)[C@H]1OC(n2cnc3c(N)nc(C#CNCc4ccccc4)nc32)[C@H](O)[C@@H]1O (stereo not given in full)
4. Cn1c(=O)c2[nH]c(-c3ccccc3F)nc2n(C)c1=O

a:
6.76
6.21
5.07
8.17

====

TEST SYSTEM: Adenosine receptor A1 (Rattus norvegicus, UniProt P25099)
Sequence (P25099 whole entry): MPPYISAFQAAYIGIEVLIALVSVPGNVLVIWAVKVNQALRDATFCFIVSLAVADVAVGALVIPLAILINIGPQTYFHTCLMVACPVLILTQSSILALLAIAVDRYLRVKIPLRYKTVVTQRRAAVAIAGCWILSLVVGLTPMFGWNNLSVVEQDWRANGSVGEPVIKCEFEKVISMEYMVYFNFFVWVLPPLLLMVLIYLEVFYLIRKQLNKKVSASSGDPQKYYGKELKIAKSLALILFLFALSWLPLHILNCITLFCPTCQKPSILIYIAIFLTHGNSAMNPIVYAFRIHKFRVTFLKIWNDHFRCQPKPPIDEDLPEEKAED
Listed below are compounds with Ki for Adenosine receptor A1 (Rattus norvegicus, UniProt P25099), each taken from published literature.
Give bare numbers, in nM.

> print(dat)
                                   compound  unit.of.measurement  numeric.result
1  OC[C@H]1OC(n2cnc3c(NC4CC4)nc(Nc4ccccc4)nc32)[C@H](O)[C@@H]1O (stereo partly specified)                   nM              68
2  CN1CCN(Nc2nc(Cl)nc3c2ncn3[C@@H]2O[C@H](CO)[C@@H](O)[C@H]2O)CC1                   nM             184
3              CCCn1cnc2c1c(=O)n(C)c(=O)n2C                   nM           21000
4          CC(C)n1c(=O)n(C)c(=O)c2[nH]cnc21                   nM           12000

Working through the 2 compounds below one at a time, give Ki for each.
1. CCCn1c(=O)c2[nH]c(-c3ccc(OCC(=O)NCCNC(=O)[C@@H](N)CCCCN)cc3)nc2n(CCC)c1=O
2. CC(C)C[C@H](CO)Nc1ncnc2c1ncn2C1O[C@H](CO)[C@@H](O)[C@H]1O (stereo partly specified)

a:
1. 0.87
2. 224
